What GI50 was measured for each of the following?
- Test system: SF-268
- test_details: NCI screen antiproliferative activity, CNS SF-268
- Type: cell-based, human
- run_parameters: concentration corresponding to 50% growth inhibition; read-out: cytotoxicity GI50 CNS SF-268

GI50 lookup needed for O=C1c2ccccc2-c2c1c1ccc([N+](=O)[O-])cc1c(=O)n2CCCBr , thanks. > 100000 nM

Now consider O=C1c2cc3c(cc2C2C1c1ccc([N+](=O)[O-])cc1C(=O)N2CCCCl)OCO3 (racemic) and answer again. < 10 nM

Now consider O=C1c2cc3c(cc2-c2c1c1ccc([N+](=O)[O-])cc1c(=O)n2CCCCl)OCO3 and answer again. 148 nM

Now consider O=C1c2cc3c(cc2C2C1c1ccc([N+](=O)[O-])cc1C(=O)N2CCCBr)OCO3 (racemic) and answer again. < 10 nM

Now consider Cl.NCCCn1c2c(c3ccc([N+](=O)[O-])cc3c1=O)C(=O)c1ccccc1-2 and answer again. 302 nM

Now consider CN1C(=O)c2cc([N+](=O)[O-])ccc2C2C(=O)c3cc4c(cc3C21)OCO4 (racemic) and answer again. 24 nM

Now consider Cl.Nc1ccc2c3c(n(CCCCl)c(=O)c2c1)-c1cc2c(cc1C3=O)OCO2 and answer again. > 100000 nM

Now consider [N-]=[N+]=NCCCn1c2c(c3ccc([N+](=O)[O-])cc3c1=O)C(=O)c1cc3c(cc1-2)OCO3 and answer again. < 10 nM

Origin of the recorded values: patent US7495100B2
